AUC(0-t) values by entry
test: AUC (0 to t) in C57BL/6J mouse at 10 mg/kg, po; assay type: ADME, organism-based; conditions: in vivo
The figure you give is taken to be in µM·h; do not add the unit.

{"STRUCTURE STRING": "CCCn1c(=O)c2[nH]c(-c3cnn(CC#Cc4cccc(OC(F)(F)F)c4)c3)nc2n(CC)c1=O", "QUANTITATIVE READOUT": 60}
{"STRUCTURE STRING": "CCCn1c(=O)c2[nH]c(-c3cnn(CC#Cc4cccc(OC(F)(F)F)c4)c3)nc2n(CCC)c1=O", "QUANTITATIVE READOUT": 67}

Consider the record given below.
What AUC(0-t) value was documented for this compound, CCCn1c(=O)c2[nH]c(-c3cnn(CC#Cc4cccc(C(=O)O)c4)c3)nc2n(CCC)c1=O ?
2.2

---

biological target: Adenosine receptor A1 (Homo sapiens) (UniProt P30542); assay: Displacement of [3H]-DPCPX from human adenosine A1 receptor expressed in HEK293 cell membranes at 0.1 uM after 90 mins relative to control
Sequence (P30542 whole entry): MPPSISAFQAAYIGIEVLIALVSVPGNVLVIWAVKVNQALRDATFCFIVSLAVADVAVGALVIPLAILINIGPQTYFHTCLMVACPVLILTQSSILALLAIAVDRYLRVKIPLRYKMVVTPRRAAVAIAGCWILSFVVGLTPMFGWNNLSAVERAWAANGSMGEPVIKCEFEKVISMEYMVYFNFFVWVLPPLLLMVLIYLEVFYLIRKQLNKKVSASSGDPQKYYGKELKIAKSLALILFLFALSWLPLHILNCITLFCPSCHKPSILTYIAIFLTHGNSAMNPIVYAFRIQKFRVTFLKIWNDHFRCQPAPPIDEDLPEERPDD
Classify by inhibition. Ranges: small value (below 40%), mid value (40% to below 80%), large value (80% or more)

These solved cases illustrate the format of a correct answer.
{"STRUCTURE STRING": "CCCn1c(=O)c2[nH]c(-c3cnn(CC#Cc4cccc(C)c4)c3)nc2n(CCC)c1=O", "STUDY SYSTEM": "Adenosine receptor A1 (Homo sapiens) (UniProt P30542)", "ASSIGNED CLASS": "mid value"}
{"STRUCTURE STRING": "CCCn1c(=O)c2[nH]c(-c3cnn(CC#Cc4ccc(C#N)cc4)c3)nc2n(CCC)c1=O", "STUDY SYSTEM": "Adenosine receptor A1 (Homo sapiens) (UniProt P30542)", "ASSIGNED CLASS": "small value"}
{"STRUCTURE STRING": "CCCn1c(=O)c2[nH]c(-c3cnn(CC#CCN4CCCC4)c3)nc2n(CCC)c1=O", "STUDY SYSTEM": "Adenosine receptor A1 (Homo sapiens) (UniProt P30542)", "ASSIGNED CLASS": "mid value"}
{"STRUCTURE STRING": "CCCn1c(=O)[nH]c2nc(-c3cnn(CC#Cc4ccc(C(F)(F)F)cc4)c3)[nH]c2c1=O", "STUDY SYSTEM": "Adenosine receptor A1 (Homo sapiens) (UniProt P30542)", "ASSIGNED CLASS": "large value"}
{"STRUCTURE STRING": "CCCn1c(=O)c2[nH]c(-c3cnn(CC#Cc4ccccc4C(=O)OC)c3)nc2n(CCC)c1=O", "STUDY SYSTEM": "Adenosine receptor A1 (Homo sapiens) (UniProt P30542)", "ASSIGNED CLASS": "small value"}

Exam item: assign CC#CCn1cc(-c2nc3c([nH]2)c(=O)n(CCC)c(=O)n3CCC)cn1 to the correct category.
mid value

Hey, which category is CCCn1c(=O)c2[nH]c(-c3cnn(CC#Cc4ccc(C(F)(F)F)cc4)c3)nc2n(CCC)c1=O in, do you know?
large value

Could you tell me which band CCCn1c(=O)c2[nH]c(-c3cnn(CC#Cc4ccc(F)cc4)c3)nc2n(CC)c1=O belongs to?
large value

---

target: UniProt:Q12809
Sequence (Q12809 whole entry): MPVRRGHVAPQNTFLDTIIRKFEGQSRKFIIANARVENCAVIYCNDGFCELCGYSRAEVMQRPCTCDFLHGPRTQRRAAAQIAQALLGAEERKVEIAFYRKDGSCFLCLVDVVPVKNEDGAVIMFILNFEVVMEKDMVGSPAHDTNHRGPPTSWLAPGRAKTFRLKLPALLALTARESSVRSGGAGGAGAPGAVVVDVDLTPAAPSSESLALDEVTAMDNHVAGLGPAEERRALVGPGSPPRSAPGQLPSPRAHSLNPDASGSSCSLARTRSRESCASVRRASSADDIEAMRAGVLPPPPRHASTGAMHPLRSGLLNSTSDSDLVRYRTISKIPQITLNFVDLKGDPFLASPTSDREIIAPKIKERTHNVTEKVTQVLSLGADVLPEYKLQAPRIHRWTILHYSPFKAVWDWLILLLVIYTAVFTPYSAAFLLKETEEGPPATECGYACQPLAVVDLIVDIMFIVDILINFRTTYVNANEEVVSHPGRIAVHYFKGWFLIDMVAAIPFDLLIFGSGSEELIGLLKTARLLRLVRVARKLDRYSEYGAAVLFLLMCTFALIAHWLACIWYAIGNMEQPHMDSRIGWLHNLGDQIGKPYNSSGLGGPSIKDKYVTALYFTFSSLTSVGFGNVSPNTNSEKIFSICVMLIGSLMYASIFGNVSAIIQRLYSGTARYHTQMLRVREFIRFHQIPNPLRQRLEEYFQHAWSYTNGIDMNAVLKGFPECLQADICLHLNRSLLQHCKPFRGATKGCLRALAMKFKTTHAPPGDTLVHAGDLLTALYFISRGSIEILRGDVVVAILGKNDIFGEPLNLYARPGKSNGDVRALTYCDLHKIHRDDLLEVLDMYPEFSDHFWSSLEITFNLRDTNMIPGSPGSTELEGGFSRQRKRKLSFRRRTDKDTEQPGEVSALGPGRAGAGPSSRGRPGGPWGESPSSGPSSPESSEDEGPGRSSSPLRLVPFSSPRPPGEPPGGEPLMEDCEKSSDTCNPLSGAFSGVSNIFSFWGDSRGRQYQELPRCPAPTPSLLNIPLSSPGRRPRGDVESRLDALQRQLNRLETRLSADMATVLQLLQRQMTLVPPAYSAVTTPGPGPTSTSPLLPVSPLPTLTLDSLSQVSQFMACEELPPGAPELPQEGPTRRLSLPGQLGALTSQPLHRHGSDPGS
MEASURED METRIC: IC50

Param readout= IC50; system= UniProt:Q12809; entry= CCCn1c(=O)c2[nH]c(-c3cnn(CC#Cc4cccc(OC(F)(F)F)c4)c3)nc2n(CC)c1=O ; returns value.
> 25 µM

---

Target: UniProt:P0DMS8
Sequence (whole entry): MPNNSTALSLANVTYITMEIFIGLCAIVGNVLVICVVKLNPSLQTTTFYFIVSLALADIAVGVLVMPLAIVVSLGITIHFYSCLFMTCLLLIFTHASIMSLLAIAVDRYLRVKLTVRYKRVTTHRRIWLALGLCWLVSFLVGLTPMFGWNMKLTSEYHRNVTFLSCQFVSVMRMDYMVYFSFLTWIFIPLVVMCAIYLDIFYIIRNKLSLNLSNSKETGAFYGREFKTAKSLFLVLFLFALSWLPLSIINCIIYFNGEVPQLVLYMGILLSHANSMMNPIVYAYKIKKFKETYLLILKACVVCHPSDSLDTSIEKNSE
Test: Displacement of [3H]-HEMADO from human adenosine A3 receptor expressed in HEK293 cell membranes at 1 uM after 90 mins relative to control
Everything with inhibition lower than 10% is N; everything else, including exactly 10%, is Y.

{"STRUCTURE STRING": "CCCn1c(=O)c2[nH]c(-c3cnn(CC#Cc4cccc(OC(F)(F)F)c4)c3)nc2n(CCC)c1=O", "STUDY SYSTEM": "UniProt:P0DMS8", "ASSIGNED CLASS": "N"}

Does the compound CCCn1c(=O)c2[nH]c(-c3cnn(CC#Cc4ccc(C#N)cc4)c3)nc2n(CCC)c1=O have recorded inhibition that is 10% or more?
Y

Check if inhibition >= 10% (inclusive). Item: CCCn1c(=O)c2[nH]c(-c3cnn(CC#Cc4ccc(C)cc4)c3)nc2n(CCC)c1=O
N

Reported inhibition reaches at least 10% for CCCn1c(=O)c2[nH]c(-c3cnn(CC#Cc4ccc(C(F)(F)F)cc4)c3)nc2n(CC)c1=O ?
Y

Decide: is the reported value of inhibition for CCCn1c(=O)c2[nH]c(-c3cnn(CC#Cc4ccc(OC(F)(F)F)cc4)c3)nc2n(CCC)c1=O equal to or greater than 10%?
Y

Entry CCCn1c(=O)c2[nH]c(-c3cnn(CC#CCN4CCCCC4)c3)nc2n(CCC)c1=O : is its inhibition no less than 10%?
Y

Item CCCn1c(=O)[nH]c2nc(-c3cnn(CC#Cc4ccc(F)cc4)c3)[nH]c2c1=O with inhibition of 10% or above?
N

Form field: inhibition at least 10%? Entry: CCCn1c(=O)c2[nH]c(-c3cnn(CC#CCN4CCN(c5cccc(C(F)(F)F)c5)CC4)c3)nc2n(CCC)c1=O
Y

Form field: inhibition at least 10%? Entry: CCCn1c(=O)c2[nH]c(-c3cnn(CC#CCN4CCOCC4)c3)nc2n(CCC)c1=O
Y

Does the reported inhibition for CCCn1c(=O)[nH]c2nc(-c3cnn(CC#Cc4cccc(F)c4)c3)[nH]c2c1=O fall at or above the 10% mark?
N

Would you say CCCn1c(=O)c2[nH]c(-c3cnn(CC#Cc4ccccc4C(F)(F)F)c3)nc2n(CCC)c1=O shows inhibition at minimum 10%?
Y

Can CCCn1c(=O)c2[nH]c(-c3cnn(CC#CCN4CCN(C)CC4)c3)nc2n(CCC)c1=O be said to have inhibition at or above 10%?
Y

Hello, I need to know if CCCn1c(=O)c2[nH]c(-c3cnn(CC#Cc4cccc(OC)c4)c3)nc2n(CCC)c1=O has measured inhibition not below 10%. Thanks!
Y

Reported inhibition reaches at least 10% for CCCn1c(=O)c2[nH]c(-c3cnn(CC#Cc4cccc(F)c4)c3)nc2n(CC)c1=O ?
Y

Would you say CCCn1c(=O)[nH]c2nc(-c3cnn(CC#Cc4cccc(OC(F)(F)F)c4)c3)[nH]c2c1=O shows inhibition at minimum 10%?
N

Reported inhibition reaches at least 10% for CCCn1c(=O)c2[nH]c(-c3cnn(CC#CCN4CCCC4)c3)nc2n(CCC)c1=O ?
Y

Record CCCn1c(=O)c2[nH]c(-c3cnn(CC#CCN(CC)CC)c3)nc2n(CCC)c1=O ; criterion: inhibition no lower than 10%. Met?
Y

Answer whether inhibition of CCCn1c(=O)c2[nH]c(-c3cnn(CC#Cc4ccc(C(=O)O)cc4)c3)nc2n(CCC)c1=O is greater than or equal to 10%.
Y

---

molecular target: Adenosine receptor A3 (Homo sapiens); test: Displacement of [3H]-HEMADO from human adenosine A3 receptor expressed in HEK293 cell membranes at 1 uM after 90 mins relative to control
MEASURED METRIC: inhibition (%)
Answer format: numeric, % implied, no suffix.

The examples below pair each entry with its known result.
{"STRUCTURE STRING": "CCCn1c(=O)c2[nH]c(-c3cnn(CC#Cc4cccc(C(=O)O)c4)c3)nc2n(CCC)c1=O", "MEASUREMENT UNITS": "%", "inhibition": 0}
{"STRUCTURE STRING": "CCCn1c(=O)[nH]c2nc(-c3cnn(CC#Cc4cccc(C(F)(F)F)c4)c3)[nH]c2c1=O", "MEASUREMENT UNITS": "%", "inhibition": 0}
{"STRUCTURE STRING": "CCCn1c(=O)[nH]c2nc(-c3cnn(CC#Cc4ccc(OC(F)(F)F)cc4)c3)[nH]c2c1=O", "MEASUREMENT UNITS": "%", "inhibition": 17}
{"STRUCTURE STRING": "CCCn1c(=O)c2[nH]c(-c3cnn(CC#Cc4ccc(OC(F)(F)F)cc4)c3)nc2n(CC)c1=O", "MEASUREMENT UNITS": "%", "inhibition": 32}
{"STRUCTURE STRING": "CCCn1c(=O)c2[nH]c(-c3cnn(CC#Cc4ccc(C(F)(F)F)cc4)c3)nc2n(CCC)c1=O", "MEASUREMENT UNITS": "%", "inhibition": 12}

Query (compound): CCCn1c(=O)c2[nH]c(-c3cnn(CC#Cc4cccc(F)c4)c3)nc2n(CCC)c1=O ; field requested: inhibition
0

Query (compound): CCCn1c(=O)c2[nH]c(-c3cnn(CC#Cc4ccc(F)cc4)c3)nc2n(CC)c1=O ; field requested: inhibition
33

Fill in the blank: the reported inhibition of CCCn1c(=O)c2[nH]c(-c3cnn(CC#Cc4cccc(OC(F)(F)F)c4)c3)nc2n(CC)c1=O is ____.
0

I'd like to know its inhibition. The compound in question is CCCn1c(=O)[nH]c2nc(-c3cnn(CC#Cc4ccc(C(F)(F)F)cc4)c3)[nH]c2c1=O
15
